B1: WDR41 (parent)
chain: HVGELIIWDALDWTMQAYERNFWD

Variants of: B1
test.method.notes: protein stability index of a GFP-peptide fusion (GPS, HEK-293T) (PSI 1-6); higher = more stable;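 also: lentivirally expressed fusions sorted by FACS into six bins by GFP to DsRed ratio, PSI derived from sequencing read proportions per bin multiplied by bin number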
test.conditions: c terminus: a fixed tail appended
Outcome label depends on protein stability index relative to 2: at/above gives YES, below gives NO.

| mutation.list | qualitative.label |
| --- | --- |
| Y18A | YES |
| A17H | NO |
| I7D | YES |
| E19I | YES |
| T14K | YES |
| V2T | NO |
| E19C | YES |
| D24K | NO |
| I7H | YES |
| M15T | NO |
| D24I | YES |
| L5F | YES |
| I6G | NO |
| N21G | YES |
| V2G | NO |
| L5T | NO |
| W13N | NO |
| G3V | YES |
| W8T | NO |
| G3D | YES |
| D12K | YES |
| H1M | YES |
| E4G | NO |
| E4A | YES |
| N21Q | YES |
| W13D | YES |
| F22L | YES |
| T14S | NO |
| L5H | NO |
| W23G | YES |
| W23N | NO |
| L5K | YES |
| D24H | YES |
| V2A | NO |
| G3Y | YES |
| D9F | YES |
| V2F | YES |
| A17W | YES |
| W8N | NO |
| E4P | NO |
| I7G | NO |
| V2Q | YES |
| I7T | NO |
| F22P | NO |
| T14G | YES |
| H1Q | NO |
| F22K | NO |
| I7W | YES |
| A17T | NO |
| V2M | YES |
| W13E | NO |
| V2K | YES |
| H1P | NO |
| V2E | NO |
| I6T | NO |
| G3N | NO |
| E4Q | YES |
| W8K | NO |
| Q16C | YES |
| F22M | YES |
| D9L | NO |
| V2I | YES |
| I6H | NO |
